FYI, the data here is from ChEMBL document CHEMBL4152321.

test: Cytotoxicity against African green monkey Vero cells after 3 days by resazurin dye based fluorescence assay; type: cell-based; conditions: chlorocebus sabaeus
property_name: CC50 at 72 h

INSERT INTO assay_data (smiles_structure, property_name, result) VALUES
  ('CC1(C)O[C@H]2O[C@H](Cn3cc(CN4C(=O)C(=O)c5ccccc54)nn3)[C@H](O)[C@H]2O1', 'CC50 at 72 h', '> 200 µM'),
  ('CC(=O)C[C@H]1O[C@@H](On2cc(CN3C(=O)/C(=N\Nc4ccc(C#N)cc4)c4ccccc43)nn2)[C@H](OC(C)=O)[C@@H](OC(C)=O)[C@@H]1OC(C)=O', 'CC50 at 72 h', '75.4 µM'),
  ('COc1ccc(N/N=C2\C(=O)N(Cc3cn(O[C@@H]4O[C@H](CO)[C@@H](O)[C@H](O)[C@H]4O)nn3)c3ccccc32)cc1', 'CC50 at 72 h', '79.6 µM'),
  ('CC(=O)C[C@H]1O[C@@H](On2cc(CN3C(=O)/C(=N\Nc4ccc(Br)cc4)c4ccccc43)nn2)[C@H](OC(C)=O)[C@@H](OC(C)=O)[C@@H]1OC(C)=O', 'CC50 at 72 h', '116 µM');

[ask] Form field: reported CC50 at 72 h of COc1ccc(N/N=C2\C(=O)N(Cc3cn(C[C@H]4O[C@@H]5OC(C)(C)O[C@@H]5[C@H]5OC(C)(C)O[C@H]54)nn3)c3ccccc32)cc1
[reply] 105 µM

[ask] Sample CC(=O)C[C@H]1O[C@@H](On2cc(CN3C(=O)/C(=N\Nc4ccccc4)c4ccccc43)nn2)[C@H](OC(C)=O)[C@@H](OC(C)=O)[C@H]1OC(C)=O — what was its CC50 at 72 h?
[reply] 65.2 µM

[ask] Could you share which CC50 at 72 h value was measured for COc1ccc(N/N=C2\C(=O)N(Cc3cn(O[C@@H]4O[C@H](CC(C)=O)[C@@H](OC(C)=O)[C@H](OC(C)=O)[C@H]4OC(C)=O)nn3)c3ccccc32)cc1 ?
[reply] 95.3 µM

---

experiment: Selectivity index, ratio of CC50 for African green monkey Vero cells to IC50 for chloroquine-resistant Plasmodium falciparum K1 infected in human erythrocytes; assay type: toxicity, cell-based; conditions: read-out: Ratio CC50/IC50
property_name: selectivity ratio
No unit in the answer, only the number.

These recorded examples may help you get a feel for the data.
INSERT INTO results (smiles_structure, property_name, numeric_readout) VALUES
  ('CC(=O)C[C@H]1O[C@@H](On2cc(CN3C(=O)/C(=N\Nc4ccc(Br)cc4)c4ccccc43)nn2)[C@H](OC(C)=O)[C@@H](OC(C)=O)[C@@H]1OC(C)=O', 'selectivity ratio', 30.3),
  ('CC(=O)C[C@H]1O[C@@H](On2cc(CN3C(=O)/C(=N\Nc4ccc(C#N)cc4)c4ccccc43)nn2)[C@H](OC(C)=O)[C@@H](OC(C)=O)[C@H]1OC(C)=O', 'selectivity ratio', 17.6),
  ('CC1(C)O[C@H]2[C@@H](O1)[C@@H](Cn1cc(CN3C(=O)/C(=N\Nc4ccccc4)c4ccccc43)nn1)O[C@@H]1OC(C)(C)O[C@@H]12', 'selectivity ratio', 40.2),
  ('CC(=O)C[C@H]1O[C@@H](On2cc(CN3C(=O)/C(=N\Nc4ccccc4)c4ccccc43)nn2)[C@H](OC(C)=O)[C@@H](OC(C)=O)[C@H]1OC(C)=O', 'selectivity ratio', 15.8);

Now, please, on to the next compound.
[ask] # query: selectivity ratio of entry CC(=O)C[C@H]1O[C@@H](On2cc(CN3C(=O)/C(=N\Nc4ccccc4)c4ccccc43)nn2)[C@H](OC(C)=O)[C@@H](OC(C)=O)[C@@H]1OC(C)=O
[reply] 15.1

---

experiment: Cytotoxicity against African green monkey Vero cells after 3 days by resazurin dye based fluorescence assay; assay type: cell-based; settings: chlorocebus sabaeus
CC50 at 72 h reference
A number alone suffices; assume µM.

Use these answered entries as a reference point.
INSERT INTO measurements (smiles_structure, numeric_readout) VALUES
  ('CC1(C)O[C@H]2O[C@H](Cn3cc(CN4C(=O)/C(=N\Nc5ccccc5)c5ccccc54)nn3)[C@H](O)[C@H]2O1', 82.1),
  ('O=C1/C(=N\Nc2cccc(Cl)c2)c2ccccc2N1Cc1cn(O[C@@H]2O[C@H](CO)[C@H](O)[C@H](O)[C@H]2O)nn1', 84.5);

[ask] // CC50 at 72 h lookup, key: CC1(C)O[C@H]2[C@@H](O1)[C@@H](Cn1cc(CN3C(=O)/C(=N\Nc4ccc(F)cc4)c4ccccc43)nn1)O[C@@H]1OC(C)(C)O[C@@H]12
[reply] 122

---

Below, each of the molecules is paired with its reported selectivity ratio value.
test: Selectivity index, ratio of CC50 for African green monkey Vero cells to IC50 for chloroquine-resistant Plasmodium falciparum K1 infected in human erythrocytes; type: toxicity, cell-based; details: read-out: Ratio CC50/IC50
Give the figure only, with no unit attached.

Illustrative cases are given below, each with its answer.
INSERT INTO measurements (smiles_structure, property_name, numeric_readout) VALUES
  ('CC(=O)C[C@H]1O[C@@H](On2cc(CN3C(=O)/C(=N\Nc4cccc(Cl)c4)c4ccccc43)nn2)[C@H](OC(C)=O)[C@@H](OC(C)=O)[C@@H]1OC(C)=O', 'selectivity ratio', 13.4),
  ('CC1(C)O[C@H]2O[C@H](Cn3cc(CN4C(=O)/C(=N\Nc5ccc(C#N)cc5)c5ccccc54)nn3)[C@H](O)[C@H]2O1', 'selectivity ratio', 30.8),
  ('CC(=O)C[C@H]1O[C@@H](On2cc(CN3C(=O)/C(=N\Nc4cccc(Cl)c4)c4ccccc43)nn2)[C@H](OC(C)=O)[C@@H](OC(C)=O)[C@H]1OC(C)=O', 'selectivity ratio', 45.5),
  ('CC1(C)O[C@H]2[C@@H](O1)[C@@H](Cn1cc(CN3C(=O)/C(=N\Nc4cccc(Cl)c4)c4ccccc43)nn1)O[C@@H]1OC(C)(C)O[C@@H]12', 'selectivity ratio', 47),
  ('O=C1/C(=N\Nc2ccccc2)c2ccccc2N1Cc1cn(O[C@@H]2O[C@H](CO)[C@@H](O)[C@H](O)[C@H]2O)nn1', 'selectivity ratio', 10.9);

[ask] Which selectivity ratio is reported for this molecule? COc1ccc(N/N=C2\C(=O)N(Cc3cn(C[C@H]4O[C@@H]5OC(C)(C)O[C@@H]5[C@H]5OC(C)(C)O[C@H]54)nn3)c3ccccc32)cc1
[reply] 46

[ask] What value of measured selectivity ratio is listed for COc1ccc(N/N=C2\C(=O)N(Cc3cn(O[C@@H]4O[C@H](CO)[C@H](O)[C@H](O)[C@H]4O)nn3)c3ccccc32)cc1 ?
[reply] 14.7

---

assay: Cytotoxicity against African green monkey Vero cells after 3 days by resazurin dye based fluorescence assay; assay type: cell-based; details: chlorocebus sabaeus
property_name: CC50 at 72 h (µM)
Field format: number, assumed µM, no unit text.

[ask] What value of CC50 at 72 h has been recorded for this entry: CC(=O)C[C@H]1O[C@@H](On2cc(CN3C(=O)C(=O)c4ccccc43)nn2)[C@H](OC(C)=O)[C@@H](OC(C)=O)[C@@H]1OC(C)=O
[reply] 137

[ask] I have this compound here, CC(=O)C[C@H]1O[C@@H](On2cc(CN3C(=O)/C(=N\Nc4ccccc4)c4ccccc43)nn2)[C@H](OC(C)=O)[C@@H](OC(C)=O)[C@@H]1OC(C)=O , and I need its recorded CC50 at 72 h.
[reply] 108

[ask] Look up CC50 at 72 h for this compound: CC1(C)O[C@H]2O[C@H](Cn3cc(CN4C(=O)/C(=N\Nc5ccc(Br)cc5)c5ccccc54)nn3)[C@H](O)[C@H]2O1
[reply] 72.9

[ask] // lookup CC50 at 72 h for CC1(C)O[C@H]2O[C@H](Cn3cc(CN4C(=O)/C(=N\Nc5ccc(F)cc5)c5ccccc54)nn3)[C@H](O)[C@H]2O1
[reply] 83.8

[ask] Query (compound): CC(=O)C[C@H]1O[C@@H](On2cc(CN3C(=O)/C(=N\Nc4ccc(C#N)cc4)c4ccccc43)nn2)[C@H](OC(C)=O)[C@@H](OC(C)=O)[C@H]1OC(C)=O ; field requested: CC50 at 72 h
[reply] 75.5

[ask] Name the reported CC50 at 72 h value associated with the compound N#Cc1ccc(N/N=C2\C(=O)N(Cc3cn(O[C@@H]4O[C@H](CO)[C@H](O)[C@H](O)[C@H]4O)nn3)c3ccccc32)cc1
[reply] 93.7

[ask] Return reported CC50 at 72 h; argument: COc1ccc(N/N=C2\C(=O)N(Cc3cn(O[C@@H]4O[C@H](CC(C)=O)[C@H](OC(C)=O)[C@H](OC(C)=O)[C@H]4OC(C)=O)nn3)c3ccccc32)cc1
[reply] 62.5

[ask] What value of CC50 at 72 h has been recorded for this entry: CC(=O)C[C@H]1O[C@@H](On2cc(CN3C(=O)/C(=N\Nc4ccc(Br)cc4)c4ccccc43)nn2)[C@H](OC(C)=O)[C@@H](OC(C)=O)[C@H]1OC(C)=O
[reply] 83.4

[ask] Any idea what CC50 at 72 h was measured for CC(=O)C[C@H]1O[C@@H](On2cc(CN3C(=O)/C(=N\Nc4ccc(F)cc4)c4ccccc43)nn2)[C@H](OC(C)=O)[C@@H](OC(C)=O)[C@H]1OC(C)=O ?
[reply] 78.6

[ask] Which CC50 at 72 h is listed for CC1(C)O[C@H]2O[C@H](Cn3cc(CN4C(=O)/C(=N\Nc5ccc(C#N)cc5)c5ccccc54)nn3)[C@H](O)[C@H]2O1 ?
[reply] 105
